- system: JAK3 (Homo sapiens, UniProt P52333)
- Sequence (P52333 whole entry): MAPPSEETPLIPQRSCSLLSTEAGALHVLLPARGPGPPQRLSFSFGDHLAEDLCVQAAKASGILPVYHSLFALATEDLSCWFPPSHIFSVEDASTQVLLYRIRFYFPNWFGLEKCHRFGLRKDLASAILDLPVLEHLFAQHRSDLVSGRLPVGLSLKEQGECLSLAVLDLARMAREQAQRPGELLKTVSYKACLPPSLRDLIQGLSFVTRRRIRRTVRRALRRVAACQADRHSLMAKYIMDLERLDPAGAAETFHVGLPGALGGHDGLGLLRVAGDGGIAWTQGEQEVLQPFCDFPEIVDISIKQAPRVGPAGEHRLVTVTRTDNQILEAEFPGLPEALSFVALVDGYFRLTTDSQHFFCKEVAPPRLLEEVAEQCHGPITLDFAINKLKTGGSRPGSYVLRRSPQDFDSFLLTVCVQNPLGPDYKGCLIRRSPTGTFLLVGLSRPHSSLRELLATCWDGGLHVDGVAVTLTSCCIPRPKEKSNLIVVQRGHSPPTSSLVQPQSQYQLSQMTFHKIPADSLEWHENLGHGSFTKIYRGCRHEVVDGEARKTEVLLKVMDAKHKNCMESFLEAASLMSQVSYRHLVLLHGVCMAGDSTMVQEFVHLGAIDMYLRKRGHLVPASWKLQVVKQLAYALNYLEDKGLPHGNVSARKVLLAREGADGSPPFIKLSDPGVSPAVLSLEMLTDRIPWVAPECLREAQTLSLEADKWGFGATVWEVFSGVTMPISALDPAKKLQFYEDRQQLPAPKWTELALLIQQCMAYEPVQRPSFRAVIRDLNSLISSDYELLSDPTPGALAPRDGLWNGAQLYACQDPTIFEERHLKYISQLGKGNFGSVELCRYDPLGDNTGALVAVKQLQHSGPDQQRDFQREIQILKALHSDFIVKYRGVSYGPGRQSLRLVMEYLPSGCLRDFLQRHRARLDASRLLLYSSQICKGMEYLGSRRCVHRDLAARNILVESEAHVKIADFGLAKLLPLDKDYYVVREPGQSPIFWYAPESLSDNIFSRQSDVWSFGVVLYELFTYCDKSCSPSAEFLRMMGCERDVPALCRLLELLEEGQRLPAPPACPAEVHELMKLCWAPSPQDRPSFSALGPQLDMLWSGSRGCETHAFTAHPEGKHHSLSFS
- experimental_details: Biochemical JAK3 kinase assay (LanthaScreen)
- Set-up: GST; purchased Life Technologies
- assay_context: read-out: JAK 3 (pKi) (converted)
readout_name: Ki

Data request, read-out Ki, for C=CC(=O)N1CC2(CCC2Oc2cc(-c3ccc(O)cc3)cc3[nH]ncc23)C1 (stereo not shown) [Compound 12-54]
0.1 to 1 nM

Again, but for C=CC(=O)N1CCO[C@@H](C(=O)Nc2cc(-c3ccc(O)cc3)cc3[nH]ncc23)C1 [Compound 6]
< 0.1 nM

Subsequent entry: C=CC(=O)N1CC[C@H](Oc2cc(-c3cc(F)c(O)c(F)c3)cc3[nH]ncc23)C1 [Compound 1-14]
< 0.1 nM

For C=C(CN(C)C)C(=O)N1CC(COc2cc(-c3ccc(O)cc3)nc3[nH]ncc23)C1 [Compound 3-79] then?
0.1 to 1 nM

Let us now turn to C=CC(=O)N1CC[C@H](Oc2nc(-c3ccc(O)c(Cl)c3)nc3[nH]nc(C)c23)C1 [Compound 1-37]
0.1 to 1 nM

CN(C)C/C=C/C(=O)N1CC(C)(COc2cc(-c3ccc(O)cc3)cc3[nH]ncc23)C1 [Compound 3-7] , same question.
< 0.1 nM

Okay, and CN(C)C/C=C/C(=O)N1CC(F)(COc2cc(-c3ccc(O)c(F)c3)cc3[nH]ncc23)C1 [Compound 3-40] ?
< 0.1 nM

Another molecule to check: COC1(COc2cc(-c3ccc(O)cc3)cc3[nH]ncc23)CN(C(=O)/C=C/CN(C)C)C1 [Compound 3-32]
0.1 to 1 nM

What do you have for C=CC(=O)N1C[C@@H](Oc2cc(-c3ccc(O)cc3)cc3[nH]ncc23)CC[C@@H]1C [Compound 12-33] ?
0.1 to 1 nM

Now consider C=CC(=O)N1CC(C(C)(C)Oc2cc(-c3ccc(O)cc3)nc3[nH]ncc23)C1 [Compound 20] .
< 0.1 nM

Similarly, C=CC(=O)N1CC[C@H](Oc2cc(-c3ccc(O)cc3)cc3[nH]nc(NC)c23)C1 [Compound 1-21] ?
0.1 to 1 nM

Please do the same for C[C@@H]1C[C@H](Oc2cc(-c3ccc(O)cc3)cc3[nH]ncc23)CN1C(=O)/C=C/CN(C)C [Compound 1-10] as well.
0.1 to 1 nM

Now try C=CC(=O)N1CCC(Oc2nc(-c3ccc(O)c(F)c3)cc3[nH]ncc23)CC1 [Compound 6-16] .
0.1 to 1 nM

// same read-out, input: COCCN(C/C=C/C(=O)N1CC(COc2cc(-c3ccc(O)cc3)cc3[nH]ncc23)C1)CCOC [Compound 3-120]
< 0.1 nM

Let us now turn to CN(C)C/C=C/C(=O)N1CC(F)(COc2cc(-c3ccc(O)cc3)nc3[nH]ncc23)C1 [Compound 3-89]
< 0.1 nM

// same read-out, input: CN(C)C/C=C/C(=O)N1CCC(Nc2cc(-c3ccc(O)cc3)cc3[nH]ncc23)C(F)(F)C1 (stereo not shown) [Compound 7-5]
0.1 to 1 nM

---

- system: UniProt P52333
- experimental_details: Biochemical JAK3 kinase assay (LanthaScreen)
- Set-up: GST; purchased Life Technologies
- assay_context: selectivity: difference of pKi JAK3 and pKi JAK1
readout_name: JAK3 (pKi)-JAK1 (pKi)

INSERT INTO assay_data (smi, result) VALUES
  ('CN(C)C/C=C/C(=O)N1CC(Oc2cc(-c3ccc(O)cc3)cc3[nH]ncc23)(C2CC2)C1', 'B (a value of 2.3 to 3)'),
  ('CN(C/C=C/C(=O)N1CC(COc2cc(-c3ccc(O)cc3)cc3[nH]ncc23)C1)C(C)(C)C', 'B (a value of 2.3 to 3)');

---

- system: JAK3 (Homo sapiens)
- experimental_details: Biochemical JAK3 kinase assay (LanthaScreen)
- Design: GST; purchased Life Technologies
- assay_context: selectivity JAK3 over JAK1, difference of pKi
readout_name: JAK3 (pKi)-JAK1 (pKi)

INSERT INTO results (compound, result) VALUES
  ('C=CC(=O)N1C2CCC1CC(Nc1cc(-c3ccc(O)cc3)cc3[nH]ncc13)C2 (centres unmarked) [Compound 9-9]', 'B (a value of 2.3 to 3)'),
  ('CN(C)C/C=C/C(=O)N1CCC(COc2cc(-c3ccc(O)cc3)cc3[nH]ncc23)CC1', 'B (a value of 2.3 to 3)'),
  ('CN(C)C/C=C/C(=O)N1CC2(CCC2Oc2cc(-c3ccc(O)cc3)cc3[nH]ncc23)C1 (centres unmarked)', 'B (a value of 2.3 to 3)');

---

Exercise: state measured Ki for each of the compounds provided.
- system: JAK2 (Homo sapiens, UniProt O60674)
- Construct: GST; purchased Life Technologies
- Sequence (O60674 whole entry): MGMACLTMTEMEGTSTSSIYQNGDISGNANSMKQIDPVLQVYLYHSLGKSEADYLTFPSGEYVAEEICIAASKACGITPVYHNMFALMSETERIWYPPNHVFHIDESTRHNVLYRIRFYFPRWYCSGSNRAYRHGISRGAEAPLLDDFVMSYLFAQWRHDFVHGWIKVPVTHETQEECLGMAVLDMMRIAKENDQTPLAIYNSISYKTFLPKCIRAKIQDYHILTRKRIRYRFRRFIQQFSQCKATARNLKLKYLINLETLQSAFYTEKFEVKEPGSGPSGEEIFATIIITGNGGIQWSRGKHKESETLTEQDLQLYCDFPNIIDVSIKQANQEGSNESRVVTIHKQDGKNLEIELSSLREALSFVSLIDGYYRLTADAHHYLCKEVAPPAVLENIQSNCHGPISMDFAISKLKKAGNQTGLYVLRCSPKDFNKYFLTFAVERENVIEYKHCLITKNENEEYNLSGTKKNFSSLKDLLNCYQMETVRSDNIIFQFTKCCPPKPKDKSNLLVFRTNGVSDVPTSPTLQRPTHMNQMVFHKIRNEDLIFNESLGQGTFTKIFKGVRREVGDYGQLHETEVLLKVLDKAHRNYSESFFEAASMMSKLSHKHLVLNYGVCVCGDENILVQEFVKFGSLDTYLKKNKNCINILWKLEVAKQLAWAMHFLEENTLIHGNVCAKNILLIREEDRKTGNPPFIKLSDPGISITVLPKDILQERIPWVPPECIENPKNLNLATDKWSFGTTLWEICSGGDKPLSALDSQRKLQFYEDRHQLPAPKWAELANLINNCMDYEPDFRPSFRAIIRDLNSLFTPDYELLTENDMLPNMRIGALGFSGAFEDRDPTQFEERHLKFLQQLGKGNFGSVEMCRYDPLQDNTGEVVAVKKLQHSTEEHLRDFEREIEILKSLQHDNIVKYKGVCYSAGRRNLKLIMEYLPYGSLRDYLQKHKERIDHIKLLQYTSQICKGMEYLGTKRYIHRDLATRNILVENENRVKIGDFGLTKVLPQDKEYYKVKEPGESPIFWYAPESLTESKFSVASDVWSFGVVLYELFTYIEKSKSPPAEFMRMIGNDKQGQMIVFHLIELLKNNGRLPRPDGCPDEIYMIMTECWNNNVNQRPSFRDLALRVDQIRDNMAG
- experimental_details: Biochemical JAK2 kinase assay (LanthaScreen)
- assay_context: read-out: JAK 2 (pKi) (converted)

Quick check: Ki of C=CC(=O)N1CCOC[C@H]1C(=O)Nc1cc(-c2ccc(O)cc2)cc2[nH]ncc12 ?
> 100 nM

Same lookup for C=CC(=O)N1C[C@H](C(=O)Nc2cc(-c3ccc(O)cc3)cc3[nH]ncc23)OC[C@@H]1C , please.
> 100 nM

Request: CN(C)C/C=C/C(=O)N1CCC(C)(Oc2cc(-c3ccc(O)c(F)c3)cc3[nH]ncc23)CC1
10 to 100 nM

Now the same for CN(C)C/C=C/C(=O)N1CC(COc2cc(-c3cc(F)c(O)cc3F)cc3[nH]ncc23)C1
10 to 100 nM

Same question for C=CC(=O)N1CC(C)(COc2nc(-c3ccc(O)cc3)cc3[nH]ncc23)C1 please.
10 to 100 nM

And CN(C)C/C=C/C(=O)N1CC(F)(COc2cc(-c3ccc(O)cc3)nc3[nH]ncc23)C1 ?
> 100 nM

What do we get for C=CC(=O)N1CC[C@@H](Oc2cc(-c3ccc(O)cc3)cc3[nH]ncc23)C[C@H]1C ?
10 to 100 nM

Quick one: C=CC(=O)N1C[C@@H](C)O[C@@H](C(=O)Nc2cc(-c3ccc(O)cc3)cc3[nH]ncc23)C1
> 100 nM

Same question for C=CC(=O)N1CC(C#N)(COc2nc(-c3ccc(O)cc3)cc3[nH]ncc23)C1 please.
10 to 100 nM

# iterate: C=CC(=O)N1CC[C@H](Oc2cc(-c3ccc(O)cc3)cc3[nH]ncc23)C1
10 to 100 nM

What about this compound? CN(C)C/C=C/C(=O)N1CC(F)(COc2cc(-c3ccc(O)c(F)c3)cc3[nH]ncc23)C1
10 to 100 nM

What about CN(C)C/C=C/C(=O)N1CC(F)(COc2nc(-c3ccc(O)c(Cl)c3)cc3[nH]ncc23)C1 ?
10 to 100 nM

Note, next up: CSC1CCN(C/C=C/C(=O)N2CC(COc3cc(-c4ccc(O)cc4)cc4[nH]ncc34)C2)CC1
0.1 to 1 nM

What about this compound? CN(C)C/C=C/C(=O)N1CC(C#N)(COc2cc(-c3ccc(O)c(Cl)c3)cc3[nH]ncc23)C1
> 100 nM

Then C=CC(=O)N1CCS(=O)(=O)C(C(=O)Nc2cc(-c3ccc(O)cc3)cc3[nH]ncc23)C1 (stereo not shown) ?
> 100 nM

Same read-out for CN(C)C/C=C/C(=O)N1CC(COc2nc(-c3ccc(O)c(F)c3)cc3[nH]ncc23)C1 ?
> 100 nM

Can you check C=CC(=O)N1CCC(Oc2nc(-c3ccc(O)cc3)cc3[nH]ncc23)CC1 next?
10 to 100 nM

Then this compound: C=CC(=O)N1CC2(CCC2Oc2cc(-c3ccc(O)cc3)cc3[nH]ncc23)C1 (stereo not shown)
10 to 100 nM

Moving on to the next compound: C=CC(=O)N1CC(COc2nc(-c3ccc(O)c(F)c3)nc3[nH]ncc23)C1
> 100 nM

Moving on to the next compound: C=CC(=O)N1CC[C@H](Oc2cc(-c3cc(F)c(O)cc3C)cc3[nH]ncc23)C1
10 to 100 nM

Next compound: C=CC(=O)N1CC[C@H](Oc2nc(-c3ccc(O)c(F)c3)cc3[nH]nc(C)c23)C1
10 to 100 nM

// repeat for CN(C)C/C=C/C(=O)N1CCC(COc2cc(-c3ccc(O)cc3)cc3[nH]ncc23)CC1 and report
10 to 100 nM

Next record, please: CN(C)C/C=C/C(=O)N1CCC(Oc2cc(-c3ccc(O)c(F)c3)cc3[nH]ncc23)CC1
1 to 10 nM

Param item: C=CC(=O)N1CC(COc2cc(-c3ccc(O)cc3)cc3[nH]ncc23)C1
> 100 nM

Next compound up: C=CC(=O)N1CCC(Oc2cc(-c3ccc(O)cc3)cc3[nH]ncc23)CC1
10 to 100 nM

Same question, CN(C)C/C=C/C(=O)N1CC(F)(COc2cc(-c3ccc(O)c(F)c3)nc3[nH]ncc23)C1 this time
> 100 nM

What do you get for C=CC(=O)N1CC(C)(COc2cc(-c3ccc(O)c(F)c3)nc3[nH]ncc23)C1 ?
> 100 nM

Okay, and C=CC(=O)N1CCC(N(C)c2cc(-c3ccc(O)c(F)c3)cc3[nH]ncc23)CC1 ?
10 to 100 nM

Similarly, C=CC(=O)N1CCC(C#N)(C(=O)Nc2cc(-c3ccc(O)cc3)cc3[nH]ncc23)CC1 ?
> 100 nM

Repeat with C=CC(=O)N1CC[C@H](Oc2cc(-c3ccc(O)c(Cl)c3)cc3[nH]nc(C)c23)C1
> 100 nM

Repeat for the following compound: CN(C)C/C=C/C(=O)N1CC[C@H](Sc2cc(-c3ccc(O)cc3)cc3[nH]ncc23)C1
10 to 100 nM
